neutralization IC50 values, listed per item
Molecular target: HIV-1 Env of MB539.2B7 (HIV-1)
Test: cell-based or functional assay

Binder: CAP256-VRC26.08 (antibody, V domains shown) VH: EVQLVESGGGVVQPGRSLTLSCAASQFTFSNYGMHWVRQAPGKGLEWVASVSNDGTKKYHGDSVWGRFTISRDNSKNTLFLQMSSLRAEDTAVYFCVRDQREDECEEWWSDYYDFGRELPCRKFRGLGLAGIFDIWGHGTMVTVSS VL: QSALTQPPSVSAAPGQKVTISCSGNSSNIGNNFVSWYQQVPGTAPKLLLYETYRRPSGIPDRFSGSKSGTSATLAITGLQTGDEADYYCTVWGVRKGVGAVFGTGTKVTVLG
Value observed: 31.7 µg/mL
//
Binder: CAP256-VRC26.07 (antibody, V domains shown) VH: EVQLVESGGGVVQPGRSLRLSCVGSQFSFNRYGMHWVRQAPGKGLEWVAGISFDGTDRYHADNVWGRFTISRDNSKNTLYLQMSSLRAEDTALYYCAKDLREDECEEWWSDYYDFGKKLPCRKSRGVAGVFDKWGQGTMVTVSS VL: QAVLTQPPSVSAAPGQNVTISCSGSGSNIGNNFVSWYQQRPGTAPKLLIYESNKRPSGIPDRFSGSKSGTSATLAITGLQTGDEAYYYCATWAARLNSARVFGTGTMVTVLG
Value observed: > 50 µg/mL
//
Binder: CAP256-VRC26.01 (antibody, V domains shown) VH: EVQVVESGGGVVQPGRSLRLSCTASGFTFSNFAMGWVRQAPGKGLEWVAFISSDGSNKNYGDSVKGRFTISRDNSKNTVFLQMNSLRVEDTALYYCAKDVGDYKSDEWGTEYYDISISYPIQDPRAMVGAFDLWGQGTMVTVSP VL: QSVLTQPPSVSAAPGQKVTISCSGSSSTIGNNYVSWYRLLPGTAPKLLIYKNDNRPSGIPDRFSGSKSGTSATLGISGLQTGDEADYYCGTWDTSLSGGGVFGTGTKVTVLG
Value observed: > 50 µg/mL
//
Binder: CAP256-VRC26.04 (antibody, V domains shown) VH: EVQLVESGGGVVQPGKSLRLSCAASQFSFNRYGMHWVRQAPGKGLEWVAAISYDGTDKYHADKVWGRFTISRDNSKNTLYLQMNSLRAEDTALYYCAKDLREDECEEWWSDYYDFGKQLPCRKSRGVAGIFDKWGQGTMVIVSS VL: QPVLTQPPSVSAAPGQKVTISCSGSSSNIGNNFVSWYQQRPGTAPSLLIYETNKRPSGIPDRFSGSKSATSATLAITGLQTGDEADYYCATWAASLTSARVFGTGTKVIVSG
Value observed: > 50 µg/mL

// next item, neutralization IC50 requested
Challenge: Item CAP256-VRC26.05 (antibody, V domains shown) VH: EVQLVESGGGVVQPGRSLRLSCAASHFSLSSYGMHWVRQAPGKGLEWVTGISFAGTKTYYGDSVRGRFTVSRDISKNTLFLQMNSLRPDDTAMYYCARDQRYYECEEWASDYYDFGREQPCLDPRGVVGIFDLWGQGTMVTVSS VL: QSALTQPPSVSAAPGQKVTISCSGNIGNNYVSWYQQVPGTAPKLLIYENNKRPSGIPDRFSGSKSGTSATLVITGLQTGDEADFYCGTWGGSLRTGGVLGTGTRVTVLG has what recorded neutralization IC50?
Response given: > 50 µg/mL

The measurements presented in this section are drawn from patent US20200199204A1.
